tested on: CCRF-CEM leukemia; assay: NCI tumour cell line growth inhibition, 48 h; in the data active means GI50 below about 0.43 µM; inactive means the rest
Pick one and only one: active, inactive

Below, 3 compounds whose answers are already recorded.
O=c1c(-c2nc3ccccc3[nH]2)cc2ccccc2n1Cc1cn(Cc2ccc(F)cc2)nn1    active
COc1cc(/C=C2\CCCC3=C2N=C2SC=NN2C3c2cc(OC)c(OC)c(OC)c2)cc(OC)c1OC (stereo unspecified)    inactive
O=C1/C=C/[C@@H](O)[C@@H]2C[C@@H](O)C[C@H]2/C=C/CCCCO1    inactive

Outcome? COc1cccc(-c2nn(C)c3sc(C(=O)NCCN4CCN(c5ccccc5F)CC4)cc23)c1 inactive

And then N=C(N)c1ccc(-c2ccc(-c3ccccc3)o2)o1 , what is it? inactive

And then Cc1nc(N(C)C)nc(-c2cccc(-c3ccn(CCN(C)C)n3)c2)c1C , what is it? inactive
